- experimentalSystem: T1, Monomeric human CD48-mmH (human)
- T1 construct: also called soluble CD48 expressed with a myc-myc-hexa-histidine C-terminal tag [mmH]
- T1 chain: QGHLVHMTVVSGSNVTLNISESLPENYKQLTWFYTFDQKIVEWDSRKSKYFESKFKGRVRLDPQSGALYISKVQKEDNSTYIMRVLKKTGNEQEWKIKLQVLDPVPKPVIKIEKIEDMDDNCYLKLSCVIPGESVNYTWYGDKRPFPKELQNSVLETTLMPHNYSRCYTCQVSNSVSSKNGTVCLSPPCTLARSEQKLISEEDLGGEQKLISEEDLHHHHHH
- assayDetails: SPR (Biacore T100), 25 C, antibody captured by anti-Fc, monomeric CD48-mmH in solution
Let's look at some binders and their measured kon.
Entry rule: numbers only, all in M⁻¹ s⁻¹.

Recorded results for 5 binders are shown here.
H4H1778P (antibody, human IgG4, V domains shown, Human IgG4 Fc (prefix H4H)) VH: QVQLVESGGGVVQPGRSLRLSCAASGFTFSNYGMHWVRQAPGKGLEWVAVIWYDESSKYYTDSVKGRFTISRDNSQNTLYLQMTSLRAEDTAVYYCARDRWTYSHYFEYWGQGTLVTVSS VL: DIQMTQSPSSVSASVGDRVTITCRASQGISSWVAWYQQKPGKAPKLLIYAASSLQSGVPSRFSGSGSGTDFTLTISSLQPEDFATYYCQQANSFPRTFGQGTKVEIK | 98600
H4H1713N (antibody, human IgG4, V domains shown, Human IgG4 Fc (prefix H4H)) VH: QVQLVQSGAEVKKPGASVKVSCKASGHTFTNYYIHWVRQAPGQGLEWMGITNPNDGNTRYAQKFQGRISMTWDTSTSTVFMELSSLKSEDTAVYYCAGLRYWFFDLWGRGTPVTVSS VL: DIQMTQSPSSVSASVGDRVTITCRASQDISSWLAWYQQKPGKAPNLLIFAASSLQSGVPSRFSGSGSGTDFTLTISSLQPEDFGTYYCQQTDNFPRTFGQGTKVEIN | 194000
H2M1763N (antibody, mouse IgG2, V domains shown, Human variable domains, mouse IgG2 Fc (prefix H2M)) VH: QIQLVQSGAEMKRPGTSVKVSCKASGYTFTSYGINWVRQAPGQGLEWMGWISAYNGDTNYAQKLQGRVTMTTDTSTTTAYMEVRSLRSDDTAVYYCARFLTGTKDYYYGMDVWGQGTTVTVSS VL: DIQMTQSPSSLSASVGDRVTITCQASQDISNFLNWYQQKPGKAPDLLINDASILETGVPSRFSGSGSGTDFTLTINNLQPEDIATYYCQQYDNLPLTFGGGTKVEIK | 548000
H2M1709N (antibody, mouse IgG2, V domains shown, Human variable domains, mouse IgG2 Fc (prefix H2M)) VH: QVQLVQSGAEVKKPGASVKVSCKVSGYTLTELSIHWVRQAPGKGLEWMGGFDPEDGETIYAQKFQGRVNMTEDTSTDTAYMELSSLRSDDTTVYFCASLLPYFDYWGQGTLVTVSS VL: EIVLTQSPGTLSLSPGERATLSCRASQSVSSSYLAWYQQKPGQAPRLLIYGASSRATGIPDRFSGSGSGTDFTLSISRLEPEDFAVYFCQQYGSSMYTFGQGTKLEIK | 292000
H2M1712N (antibody, mouse IgG2, V domains shown, Human variable domains, mouse IgG2 Fc (prefix H2M)) VH: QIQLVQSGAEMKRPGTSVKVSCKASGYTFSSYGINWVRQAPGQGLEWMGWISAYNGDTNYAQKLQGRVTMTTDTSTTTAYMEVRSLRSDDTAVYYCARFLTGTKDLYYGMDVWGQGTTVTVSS VL: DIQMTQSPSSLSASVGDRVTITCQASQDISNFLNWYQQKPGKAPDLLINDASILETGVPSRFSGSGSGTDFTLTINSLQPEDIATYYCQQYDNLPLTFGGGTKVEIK | 524000

Please give the measured kon for this binder: H2M1713N (antibody, mouse IgG2, V domains shown, Human variable domains, mouse IgG2 Fc (prefix H2M)) VH: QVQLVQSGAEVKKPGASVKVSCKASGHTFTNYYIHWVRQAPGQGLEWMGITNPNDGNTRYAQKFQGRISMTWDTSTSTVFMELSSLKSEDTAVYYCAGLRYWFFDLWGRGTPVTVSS VL: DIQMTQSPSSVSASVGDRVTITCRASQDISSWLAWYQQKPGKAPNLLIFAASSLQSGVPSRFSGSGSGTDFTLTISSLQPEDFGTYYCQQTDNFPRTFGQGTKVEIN
161000
